# Experimental System: UniProtKB Q3I4V7
# Protocol Notes: Activation of Cryptococcus neoformans beta-carbonic anhydrase Can2 by stopped flow CO2 hydration assay

| Smiles Data | Readout Unit | KA |
| --- | --- | --- |
| N[C@H](Cc1c[nH]cn1)C(=O)O | µM | 47.2 |
| N[C@@H](Cc1c[nH]cn1)C(=O)O | µM | 45 |
| N[C@@H](Cc1ccccc1)C(=O)O | µM | 44.1 |
| CNC[C@@H](O)c1ccc(O)c(O)c1 | µM | 32.8 |
| N[C@H](Cc1c[nH]c2ccccc12)C(=O)O | µM | 42.1 |
| NCCc1ccccn1 | µM | 46.3 |
| N[C@@H](Cc1c[nH]c2ccccc12)C(=O)O | µM | 28.7 |

---

Reported KA values for a set of molecules
# Experimental System: Carbonic anhydrase (Candida albicans (strain SC5314 / ATCC MYA-2876) (Yeast)) (UniProt Q5AJ71)
# Sequence (Q5AJ71 whole entry): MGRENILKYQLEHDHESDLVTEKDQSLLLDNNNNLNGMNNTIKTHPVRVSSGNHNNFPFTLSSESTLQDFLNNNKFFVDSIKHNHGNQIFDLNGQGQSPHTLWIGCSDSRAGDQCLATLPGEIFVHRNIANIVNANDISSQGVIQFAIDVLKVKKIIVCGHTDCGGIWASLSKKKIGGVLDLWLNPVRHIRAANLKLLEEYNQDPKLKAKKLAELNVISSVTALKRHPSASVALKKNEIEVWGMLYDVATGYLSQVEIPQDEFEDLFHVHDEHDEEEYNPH
# Protocol Notes: Activation of Candida albicans beta-carbonic anhydrase Nce103 by stopped flow CO2 hydration assay

| Smiles Data | KA / µM |
| --- | --- |
| CNC[C@@H](O)c1ccc(O)c(O)c1 | 13.2 |
| N[C@H](Cc1ccc(O)c(O)c1)C(=O)O | 2.5 |
| NCCN1CCNCC1 | 17.3 |
| Nc1ccc(C[C@H](N)C(=O)O)cc1 | 23.7 |
| NCCc1c[nH]c2ccc(O)cc12 | 28.6 |
| N[C@@H](Cc1ccc(O)c(O)c1)C(=O)O | 0.96 |
| NCCN1CCOCC1 | 25.4 |
| NCCc1ccc(O)c(O)c1 | 18.5 |
| N[C@H](Cc1c[nH]c2ccccc12)C(=O)O | 43 |
| N[C@@H](Cc1c[nH]cn1)C(=O)O | 24.1 |
| NCCc1c[nH]cn1 | 18.4 |
| NCc1ccccn1 | 29.1 |
| N[C@@H](Cc1ccccc1)C(=O)O | 15.5 |
| N[C@@H](Cc1c[nH]c2ccccc12)C(=O)O | 19.2 |
| N[C@@H](Cc1ccc(O)cc1)C(=O)O | 46.1 |
| NCCc1ccccn1 | 30.2 |
| N[C@H](Cc1c[nH]cn1)C(=O)O | 19.5 |
| N[C@H](Cc1ccccc1)C(=O)O | 8.4 |

---

# Experimental System: Carbonic anhydrase 2 (Cryptococcus neoformans) (UniProt Q3I4V7)
# Sequence (Q3I4V7 as listed by the source): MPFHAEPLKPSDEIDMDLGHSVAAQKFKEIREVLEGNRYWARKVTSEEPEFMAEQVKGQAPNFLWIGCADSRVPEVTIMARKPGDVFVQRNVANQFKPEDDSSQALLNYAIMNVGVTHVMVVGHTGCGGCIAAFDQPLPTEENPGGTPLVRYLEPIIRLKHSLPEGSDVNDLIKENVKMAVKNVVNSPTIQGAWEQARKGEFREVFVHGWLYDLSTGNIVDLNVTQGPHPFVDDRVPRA
# Protocol Notes: Activation of Cryptococcus neoformans beta-carbonic anhydrase Can2 by stopped flow CO2 hydration assay

| Smiles Data | Readout Unit | KA |
| --- | --- | --- |
| Nc1ccc(C[C@H](N)C(=O)O)cc1 | µM | 30.4 |
| N[C@@H](Cc1ccc(O)c(O)c1)C(=O)O | µM | 43.3 |
| N[C@H](Cc1ccc(O)c(O)c1)C(=O)O | µM | 35.1 |
| N[C@@H](Cc1ccc(O)cc1)C(=O)O | µM | 29.5 |
| NCCc1c[nH]cn1 | µM | 33.2 |
| N[C@H](Cc1ccccc1)C(=O)O | µM | 45.2 |
| NCCc1ccc(O)c(O)c1 | µM | 34.6 |
| NCCN1CCNCC1 | µM | 44.9 |
| NCCN1CCOCC1 | µM | 40.1 |
| NCCc1c[nH]c2ccc(O)cc12 | µM | 46.7 |
| NCc1ccccn1 | µM | 47 |

Hello, the source for this data is ChEMBL document CHEMBL1156841, in case you need it.
